- Test system: 519858-162-T-J1-PDC complex spheroid viability;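 note: spheroids exposed to compounds for 7 days; 100% = DMSO vehicle control viability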
- Assay: Anticancer human tumor 519858-162-T-J1-PDC patient-derived colon adenocarcinoma cell line growth inhibition [GQUAD]; active = viability on the fitted dose curve at most 10% of control; inactive = the rest
- Measurement Context: second compound 10 µM; first compound 3.16 µM
Outcome codes: true (1) for active, false (0) for inactive

# Molecule, Cat
rows = [
    ("O=C(NO)c1cnc(N2CCN(S(=O)(=O)c3ccc4ccccc4c3)CC2)nc1 + Cc1[nH]c2ccc(F)cc2c1-c1nc2c3cccnc3c3ncccc3c2[nH]1", "true (1)"),
    ("C=CC(=O)N1CCN(c2nc(=O)n(-c3c(C)ccnc3C(C)C)c3nc(-c4c(O)cccc4F)c(F)cc23)C(C)C1 (stereo not drawn) + Cc1cnc(CNC(=O)c2c(=O)c3ccc(N4CCCN(C)CC4)nc3n3c2sc2ccccc23)cn1", "false (0)"),
    ("CC1COCCN1c1cc(C2(S(C)(=N)=O)CC2)nc(-c2ccnc3[nH]ccc23)n1 (stereo not drawn) + Cc1[nH]c2ccc(F)cc2c1-c1nc2c3cccnc3c3ncccc3c2[nH]1", "false (0)"),
]
